Tested on: CEM cells HIV-1 protection, formazan growth assay
Assay: NCI AIDS Antiviral Assay
Conditions: measured here: growth of uninfected CEM cells
pIC50: −log10 of the molar value.
MEASUREMENT_KIND: pIC50

COMPOUND: Cc1c2c(n3c(nc4ccccc43)c1C#N)NCC2
TARGET_UNDER_TEST: CEM cells HIV-1 protection, formazan growth assay
MEASUREMENT_KIND: pIC50
VALUE: < 3.70
--
COMPOUND: COCCOCCOC(=O)C(CO)(CC(CO)(C(C)=O)C(=O)OCCOCCOC)C(C)=O (stereo unspecified)
TARGET_UNDER_TEST: CEM cells HIV-1 protection, formazan growth assay
MEASUREMENT_KIND: pIC50
VALUE: < 3.70
--
COMPOUND: N#Cc1nc(-c2cnccn2)oc1N
TARGET_UNDER_TEST: CEM cells HIV-1 protection, formazan growth assay
MEASUREMENT_KIND: pIC50
VALUE: 3.74
--
COMPOUND: O=C1CCC(C2(O)c3ccccc3-c3ccccc32)C(=O)N1 (stereo unspecified)
TARGET_UNDER_TEST: CEM cells HIV-1 protection, formazan growth assay
MEASUREMENT_KIND: pIC50
VALUE: < 3.91
--
COMPOUND: CC1=Nc2nnnn2N=C(C)C1
TARGET_UNDER_TEST: CEM cells HIV-1 protection, formazan growth assay
MEASUREMENT_KIND: pIC50
VALUE: < 3.63

As a next step, examine the compound that follows.
response.value for `COc1ccc(/C=C2\C(=O)N(C)C(=O)c3cc(OC)c(OC)cc32)cc1OC` (field: pIC50) = 4.29
